system: 786-O; experiment: Euclidean distance of Cell Painting phenotypic profile (signed KS, 77 features) to DMSO centroid (dimensionless distance); 5 or 10 uM (library dependent); higher = stronger phenotypic change vs DMSO (phenoactivity); settings: 48 h
REPORTED METRIC: Euclidean distance
Enter a number only.

Report Euclidean distance for Cc1cc(Nc2ncnc3ccc(-c4ccc(CNCCS(C)(=O)=O)o4)cc23)ccc1Oc1ccn2ncnc2c1 [HER2-Inhibitor-1] please.
1.06

Report Euclidean distance for O=C(Cn1ccnc1[N+](=O)[O-])NCc1ccccc1 [Benznidazole] please.
1.16

Report Euclidean distance for COC(=O)N(C)c1c(N)nc(-c2nn(Cc3ccccc3F)c3ncccc23)nc1N [Riociguat (BAY 63-2521)] please.
1.1

Report Euclidean distance for CN(C)CCCCC(=O)Nc1ccc(NC(=S)NC(=O)c2ccc(C(C)(C)C)cc2)cc1 [Tenovin-6] please.
2.9

Report Euclidean distance for Cc1ncc([N+](=O)[O-])n1CC(C)O (centres undefined) [Secnidazole] please.
1.02

Report Euclidean distance for `NS(=O)(=O)NCCNc1nonc1/C(=N/O)Nc1ccc(F)c(Br)c1` please.
1.34

Report Euclidean distance for `CS(=O)(=O)c1ccc(Oc2cc(F)cc(C#N)c2)c2c1[C@H](O)C(F)(F)C2` please.
1.1

Report Euclidean distance for Nc1ncc2ncn(CC3(OCP(=O)(O)O)CC3)c2n1 [Besifovir] please.
1.03

Report Euclidean distance for OCCOCCN1CCN(C2=Nc3ccccc3Sc3ccccc32)CC1 [Quetiapine] please.
0.8
